tested on: MDA-MB-468 breast; assay: NCI-60 one-dose screen, 48 h; conditions: 10 µM unless noted
The panel holds about 83,000 compounds, 20% with a hit somewhere; the sample as a whole holds those more often. Active and inactive are the calls of the source. How the source made its calls: active means growth percent below 10; inactive means the rest.
Just give me one of these, please: label 1 for active, label 0 for inactive

These recorded examples may help you get a feel for the data.
O=C(Nc1cccc(-c2nc(-c3ccc(NC(=O)c4cccnc4)cc3Cl)no2)c1)Nc1ccc(NC(=O)C2CC2)c(C(F)(F)F)c1 = label 1
COc1cc(C(=O)Oc2ccccc2OC(=O)c2cc(OC)c(OC)c(OC)c2)cc(OC)c1OC = label 0
CNc1cccc2c1C(=O)c1cccc(N)c1C2=O = label 0
O=C(Nc1cccc(-n2ccc3c(NC(=O)c4ccccc4)nccc32)c1)c1cccc(C(F)(F)F)c1 = label 1
c1ccc([I+]c2ccccc2)cc1 = label 0
C/C(=C\C(=O)c1ccc(Cl)cc1)c1ccc(Cl)cc1 = label 1
CCOC(=O)c1c(C=O)nc2ccccc2c1/C=C/c1ccc(Cl)cc1 = label 0
O=C(Nc1ccc(Cl)cc1F)c1cc(Cl)ccc1O = label 1
Cn1ccnc1C(=O)/C=C/c1ccc(CNC(=O)c2ccc(F)cc2)cc1 = label 1
N=C1c2nc3n(c2C(=O)c2nc4n(c21)CCCCC4)CCCCC3 = label 0

Prompt: For `[B-][N+](CC)(CC)c1ccccc1` , what call appears in the results of this test?
Completion: label 0

###

test system: KM12 colon; experiment: NCI-60 one-dose screen, 48 h; conditions: 10 µM
The panel holds about 83,000 compounds, 20% with a hit somewhere; the sample as a whole holds those more often. The source made the active and inactive calls. Rule for the calls: active = growth percent below 10; inactive = the rest.
Use one of these outcomes when replying: active, inactive

Solved cases (4 shown):
O=C1NC2C=CC=CC2/C1=C1/SC(=S)N(C2CC(=O)N(c3ccc(Br)cc3)C2=O)C1=O (stereo not given) = inactive
Cc1ccc(-c2nc(C#N)c(S(=O)(=O)N3CCN(S(C)(=O)=O)CC3)o2)cc1 = inactive
COc1cc(Nc2nc(O)c(/C=C3\C=Nc4ccccc43)s2)cc(OC)c1OC = active
COc1ccc(NCc2cn(-c3ccc(C(=O)O)cc3)nc2-c2ccc(F)cc2)cc1C(F)(F)F = inactive

Pending molecule:
Prompt: Give the logged outcome of this assay for the following molecule: COc1ccc(C2c3sc4ccc(C)cc4c3Oc3nc[nH]c(=O)c32)cc1 (stereo not given)
Completion: inactive

###

growth for assorted compounds
system: MDA-MB-468 breast; test: NCI-60 one-dose screen, 48 h (100 = growth as untreated, 0 = no growth, -100 = all killed); conditions: 10 µM unless noted
This is part of a sample that, as a whole, favours compounds with a hit. Of some 83,000 tested, about 20% had one in any assay.
Give just the number in %; leave the unit off.

Prompt: // query growth value for entry CC(=O)OC1CC2C(C)(C)CCC[C@]2(C)C2=C1C(O)=C(C(C)C)C(=O)C2=O (stereo partly drawn)
Completion: -49.5

Prompt: Tell me the measured growth of `Cc1cc(N/N=C/c2nc(-c3ccccc3)oc2C)c2cc(Cl)ccc2n1` , please.
Completion: -74.7

Prompt: What does the record list as growth for `COC(=O)c1c(C)nc(C)c2c1C(=O)C(Br)=C(NCCN1CCOCC1)C2=O` ?
Completion: 83.4

Prompt: Would you mind telling me what growth value was observed for `CC(=O)OC[C@@]12Oc3c(cccc3-c3ccc(O)c4c3O[C@]3(COC(C)=O)C(=C4O)C(=O)C[C@H](C)[C@@H]3OC(C)=O)C(O)=C1C(=O)C[C@H](C)[C@@H]2OC(C)=O` ?
Completion: -30.2

Prompt: Query (compound): `CO[C@H]1/C=C(/C)CCC[C@H](C)[C@H](O)[C@@H](C)C(=O)C(C)(C)[C@@H](O)CC(=O)O[C@@H]1/C(C)=C/c1csc(C)n1` ; field requested: growth
Completion: -23.3

Prompt: Given `CC(C)CCC[C@@H](C)[C@H]1CC[C@H]2[C@@H]3CC=C4c5sc(Nc6cc(C(F)(F)F)cc(C(F)(F)F)c6)nc5CC[C@]4(C)[C@H]3CC[C@]12C` , state its recorded growth.
Completion: 105

Prompt: Give its growth value. Item: `COc1ccc(-c2cc(-c3ccc(Nc4ccnc5cc(Cl)ccc45)cc3)nc(N3CCOCC3)n2)cc1`
Completion: 42.1

Prompt: Sample `COC(=O)c1ccc(NC(=O)c2ccc(-c3cccc([N+](=O)[O-])c3)o2)cc1` — what was its growth?
Completion: 96.5

###

test system: MDA-MB-468 breast; assay: NCI-60 one-dose screen, 48 h; settings: 10 µM unless noted
About 83,000 compounds went through this panel and 20% of them were active in at least one assay; those are over-represented in the sample as a whole. The source made the active and inactive calls. How the source made its calls: active means growth percent below 10; inactive means the rest.
Lab note: assign the record to one of Yes = active, No = inactive

COc1cc2cc(Oc3ccc(NC(=O)Nc4cc(C(F)(F)F)cc(C(F)(F)F)c4)cc3)c(C)nc2cc1OCCN1CCOCC1 = Yes

Prompt: Given `O=C1C(Cl)=C(NCCCN2CCOCC2)C(=O)c2ccccc21` , state the outcome it received in this test.
Completion: No

Prompt: Recorded test outcome, item `Cc1onc(-c2ccccc2Cl)c1C(=O)N[C@@H]1C(=O)N2[C@@H]1SC(C)(C)[C@@H]2C(=O)O`
Completion: No

Prompt: Would you mind telling me which call this test gave CC1(C)C2=C(C(=O)N1Cc1ccccc1)C(c1ccco1)N(C(=O)C1CCC1)CCN2 (stereo not given) ?
Completion: No

Prompt: Called result for `O=c1ccn(Cc2cn(-c3c4ccccc4nc4ccccc34)nn2)c(=O)[nH]1`
Completion: Yes

Prompt: For `O=C(/C=C/c1ccc(Cl)cc1)c1ccc(Br)cc1` , what call appears in the results of this test?
Completion: No

Prompt: What call does the record list for `Cc1ccc(NC2=CC(=O)C(=O)c3ccccc32)c(C)c1` ?
Completion: No

Prompt: Assay outcome for `Nc1nc(SCc2cccc([N+](=O)[O-])c2)c2[nH]cnc2n1` : what was it?
Completion: No

Prompt: In this assay, the call recorded for `COc1ccc(N=C2NN=C(c3c[nH]c4ccccc34)CS2)cc1OC` was what?
Completion: No

Prompt: Please let me know the test result on file for `C=CC(=O)N1CCC=C(c2cc3c(N[C@H](C)c4ccccc4)ncnc3[nH]2)C1` .
Completion: Yes

###

test system: MDA-MB-468 breast; assay: NCI-60 one-dose screen, 48 h; conditions: 10 µM unless noted
This is part of a sample that, as a whole, favours compounds with a hit. Of some 83,000 tested, about 20% had one in any assay. Calls of active or inactive are those of the source. The calls were made as follows: active = growth percent below 10; inactive = the rest.
Write down one outcome, taken from active, inactive

// below: answered molecules
Cc1cccc2c(N)c3ccccc3nc12 = active
O=C(NC(=S)Nc1ccc(Cl)cc1)c1ccccc1 = active
Nc1n[nH]c2cccc(C#Cc3cccc(NC(=O)c4cccc(C(F)(F)F)c4)c3)c12 = inactive
CC(Nc1c(C#N)cnc2ccc(-c3cncc(O)c3)cc12)c1ccccc1 (stereo unspecified) = active
COc1cc(OC)c(C(=O)/C=C/c2cccc(C#N)c2)c(OC)c1 = active
CCOc1nc(-c2ccco2)n2nc(-c3ccco3)cc2n1 = active
O=C1NC(=C(Cl)Cl)/C(=N/S(=O)(=O)N2CCCCC2CC2(C(F)(F)F)N=N2)N1 (stereo unspecified) = active
COc1ccc(C(=O)C(C)Br)cc1OC (stereo unspecified) = inactive
CN1C(=O)C2(SCC(C(=O)NCc3ccccc3)N2C(=O)C2CCCCC2)c2ccccc21 (stereo unspecified) = inactive
N#Cc1c(-c2ccc(F)cc2)nc(N/N=C/c2c[nH]c3ccccc23)nc1N1CCOCC1 = inactive

Prompt: Test call, this molecule: `CCOC(=O)c1cc2c(n1Cc1ccccc1)-c1oncc1CCC2`
Completion: inactive

Prompt: Dear all, I need the recorded test outcome for `Fc1ccc(Nc2ccc3cc(OCCCN4CCOCC4)ccc3n2)cc1F` , thank you.
Completion: inactive

Prompt: Kindly provide the recorded test outcome for the following molecule: C/C=C/C1OCC(CC)C(CCC)O1 (stereo unspecified)
Completion: inactive

Prompt: Could you check what this test reported for `CC1(C)CC(=O)c2c(ccc(C(=O)C[C@H](N)CO)c2N)O1` ?
Completion: active

###

test system: MDA-MB-468 breast; assay: NCI-60 one-dose screen, 48 h (100 = growth as untreated, 0 = no growth, -100 = all killed); conditions: 10 µM unless noted
Compounds without any hit were thinned out: in the full panel of roughly 83,000, 20% have a hit.
Let's look at some compounds and their measured growth.
Give your result in % as a bare value.

COc1cc(/C=N/n2cnc3oc(-c4ccccc4)cc3c2=N)cc(CN2CCCCC2)c1O = -35.8
CCCCN(CCCC)CCC(C)(O)c1cc2ccccc2c2ccccc12 (stereo not given) = 107
O=C1OC(=O)C2C3CC(c4ccccc43)C12 (stereo not given) = 121

Prompt: growth lookup needed for `CN1CCN(c2ccc(-c3ccc4ncc(C#N)c(Nc5ccc(F)c(Cl)c5)c4c3)cc2)CC1` , thanks.
Completion: 1.52

Prompt: Using the record for `CC1=CC[C@@H]2C(C)(C)[C@@H](O)CC[C@@]2(C)[C@@H]1COc1ccc2ccc(=O)oc2c1` , report its growth.
Completion: 42.8

Prompt: Fill blank: measured growth of the compound O=C1c2ccccc2NC(c2cn(-c3ccccc3)nc2-c2cccs2)N1Cc1ccccc1 (stereo not given) is ____.
Completion: 95.4

Prompt: If you can, please state the reported growth value of `CCN(CC)CCNC(=O)c1ccc(-c2nc3ccc4[nH]ncc4c3c3c2CCCC3)cc1` .
Completion: 17.4

Prompt: I would be grateful if you could share the reported growth for `C[C@@H]1COC(Nc2ccc3ncnc(Nc4ccc(OCc5nccs5)c(Cl)c4)c3c2)=N1` .
Completion: -16.4

Prompt: // query growth value for entry COC1OC2COC(c3ccccc3)OC2C(=O)C1NC(=O)c1ccccc1 (stereo not given)
Completion: 113

Prompt: What measured growth goes with CS(=O)(=O)Nc1ccc(C(=O)NC(C(=O)NO)c2ccc(-c3cccc(F)c3)cc2)cc1 (stereo not given) ?
Completion: 95

# credit: PubChem BioAssay (NCI)
